TARGET UNDER TEST: thrombin (Bos taurus)
Construct: purchased
TEST NAME: biochemical
ENDPOINT: Kd (nM)

1. CC(C)(C)OC(=O)N[C@@](C)(C(=O)N1CC[C@H]1C(=O)N[C@H](C=O)CCCN=C(N)N)c1ccccc1
2. CC(C)(C)OC(=O)NC(C)(C(=O)N1CC[C@H]1C(=O)N[C@H](C=O)CCCNC(=N)N)c1ccccc1 (mixture of isomers)
Exercise: Which entry has a larger number for Kd, 1 or 2 ? Returns: label corresponding to the selected item.
Solution: 2
(2: 90.9 nM, 1: 16.4 nM)

###

TARGET UNDER TEST: thrombin (Bos taurus, UniProt P00735)
Construct: purchased
TEST NAME: biochemical
TEST SETTINGS: Table 1; mean over a range of concentrations of test compound; pH 7.4; read-out: Kass × 10^6 (Thrombin Inhibition Levels) (converted)
Experimental: The assay was carried out in 50 μl buffer (0.03M Tris, 0.15M NaCl, pH 7.4) with 25 μl of thrombin solution (0.21 mg/ml of thrombostat powder in 0.06M Tris, 0.3M NaCl, pH 7.4) and 150 μl of an aqueous solution of the chromogenic substrate at a concentration of 0.25 mg/ml. Solutions of test compound (25 μl) at various concentrations were added. Rates of hydrolysis of the substrate were measured by monitoring the reactions at 405 nm for the release of p-nitroaniline. […]
Where a name gives a salt, the structure may show the parent alone. Where a SMILES comes first, the peptide text is derived from it. [ ]: non-standard residue; d: D form. dTic = O=C(O)[C@H]1Cc2ccccc2CN1; Aze = O=C(O)[C@@H]1CCN1
ENDPOINT: Kd (nM)

In the examples that follow, each entry is paired with its recorded Kd.
CC(=O)N[C@@](C)(C(=O)N1CC[C@H]1C(=O)N[C@H](C=O)CCCNC(=N)N)c1ccccc1 ... 14.3
N=C(N)NCCC[C@@H](C=O)NC(=O)[C@@H]1CCN1C(=O)C1NCCc2ccccc21 (mixture of isomers) ... 37
C[C@](NC(=O)C(F)(F)F)(C(=O)N1CC[C@H]1C(=O)N[C@H](C=O)CCCN=C(N)N)c1ccccc1 [TFA--D--Phg(α-Me)--Azt--Arg--H, hydrochloride] ... 7.87

1. N=C(N)NCCC[C@@H](C=O)NC(=O)[C@@H]1CCN1C(=O)[C@H]1Cc2ccccc2CN1 [D-3-Tiq--Azt--Arg--H] (H-[dTic]-[Aze]-Arg-aldehyde)
2. CC(=O)NC(C)(C(=O)N1CC[C@H]1C(=O)N[C@H](C=O)CCCNC(=N)N)c1ccccc1 (mixture of isomers)
Exercise: Which entry has a larger number for Kd, 1 or 2 ? Returns: label corresponding to the selected item.
Solution: 2
(2: 66.7 nM, 1: 28.6 nM)

Source listed as patent US5252566A.
